Target: CD28 (human) (UniProt P10747)
Assay: flow cytometry, Jurkat/IL2 reporter cells (CD28)
attribute.measured: MFI at 33.3 nM (MFI)
Give the value in MFI but do not write MFI after it.

binder	MFI at 33.3 nM (MFI)
variant CD80 IgV-Fc E35D/D46V/M47V/N48K/V68M (Fc fusion) VIHVTKEVKEVATLSCGHNVSVEELAQTRIYWQKDKKMVLTMMSGVVKIWPEYKNRTIFDITNNLSIMILALRPSDEGTYECVVLKYEKDAFKREHLAEVTLSVKAD	1080

[in] Quick check: MFI at 33.3 nM of variant CD80 IgV-Fc E35D/T41S/M43I/M47V/A71G (Fc fusion) VIHVTKEVKEVATLSCGHNVSVEELAQTRIYWQKDKKMVLSMISGDVNIWPEYKNRTIFDITNNLSIVILGLRPSDEGTYECVVLKYEKDAFKREHLAEVTLSVKAD ?
[out] 2840

[in] Now consider variant CD80 IgV-Fc E35D/M47I/T62S/L85Q (Fc fusion) VIHVTKEVKEVATLSCGHNVSVEELAQTRIYWQKDKKMVLTMMSGDINIWPEYKNRTIFDISNNLSIVILALRPSDEGTYECVVQKYEKDAFKREHLAEVTLSVKAD and answer again.
[out] 1760
